# Test system: Rattus norvegicus
# assay-name: Effective dose after subcutaneous administration to TPTX rats for 50% reduction of hypercalcemia
# Assay type: functional
# measurement-setup: sc
parameter: ED50

See these solved cases before continuing.
• CN(CCOc1ccc(Cl)cc1)CCC(O)(P(=O)(O)O)P(=O)(O)O = 1.7 µg/kg
• CN(C)C(P(=O)(O)O)P(=O)(O)O = > 3000 µg/kg
• O=P(O)(O)C(Nc1nccn1Cc1ccccc1)P(=O)(O)O = 75 µg/kg
• O=P(O)(O)C(O)(CCNCCCc1ccccc1)P(=O)(O)O = 20 µg/kg
• O=P(O)(O)C(O)(Cc1c[nH]cn1)P(=O)(O)O = 0.3 µg/kg

Attention now turns to another entry.
Prompt line: Given `CN(CCCc1ccc(Cl)cc1)CCC(O)(P(=O)(O)O)P(=O)(O)O` , respond with its ED50.
Response line: 0.7 µg/kg

Measured values drawn from ChEMBL document CHEMBL1135550 for this set.
